# protocol: Phase 2a study plasma pharmacokinetics
# Format: in vivo, human
# conditionsUsed: human, in vivo; 25 mg QD group, Day 1 after 75 mg loading dose, C-QTc population
measuredEndpoint: Cmax (ng/mL)
The answer is to be given in ng/mL; state only the numeric part.

Please report Cmax for the following compound: CCC(=O)C(C[C@H](C)N(C)C)(c1ccccc1)c1ccccc1 [esmethadone] 265

###

# systemName: hERG (Homo sapiens)
# protocol: Non GLP hERG channel current study (manual patch)
# Format: cell-based
# conditionsUsed: human; 11.2 μM; read-out: Inhibition of hERG current (Mean±SEM)
measuredEndpoint: inhibition at 11.2 µM (%)
The answer is to be given in %; state only the numeric part.

Please report inhibition at 11.2 µM for the following molecule: CCC(=O)C(C[C@@H](C)N(C)C)(c1ccccc1)c1ccccc1 90

###

# protocol: in vitro
# conditionsUsed: human, Caco-2, pH 6.5, Permeability, Mean
measuredEndpoint: Papp A→B (×10⁻⁶ cm/s)
The answer is to be given in ×10⁻⁶ cm/s; state only the numeric part.

Please report Papp A→B for the following molecule: CNC(=C[N+](=O)[O-])NCCSCc1ccc(CN(C)C)o1 0.7

Please report Papp A→B for the following molecule: COc1cc2c(c(OC)c1OC)-c1ccc(OC)c(=O)cc1[C@@H](NC(C)=O)CC2 0.3

###

# protocol: Equilibrium solubility study
# conditionsUsed: 37 °C, pH 4.5, aqueous buffer, thermodynamic from solid, Equilibrium solubility, Mean, pH 4.5, 37° C.
Structures can show the parent of a compound that is named as a salt.
measuredEndpoint: solubility thermodynamic (mg/mL)
The answer is to be given in mg/mL; state only the numeric part.

Please report solubility thermodynamic for the following compound: CCC(=O)C(C[C@H](C)N(C)C)(c1ccccc1)c1ccccc1 [esmethadone HCl] 66.9

###

# systemName: hERG (Homo sapiens, UniProt Q12809)
# Sequence (Q12809 whole entry): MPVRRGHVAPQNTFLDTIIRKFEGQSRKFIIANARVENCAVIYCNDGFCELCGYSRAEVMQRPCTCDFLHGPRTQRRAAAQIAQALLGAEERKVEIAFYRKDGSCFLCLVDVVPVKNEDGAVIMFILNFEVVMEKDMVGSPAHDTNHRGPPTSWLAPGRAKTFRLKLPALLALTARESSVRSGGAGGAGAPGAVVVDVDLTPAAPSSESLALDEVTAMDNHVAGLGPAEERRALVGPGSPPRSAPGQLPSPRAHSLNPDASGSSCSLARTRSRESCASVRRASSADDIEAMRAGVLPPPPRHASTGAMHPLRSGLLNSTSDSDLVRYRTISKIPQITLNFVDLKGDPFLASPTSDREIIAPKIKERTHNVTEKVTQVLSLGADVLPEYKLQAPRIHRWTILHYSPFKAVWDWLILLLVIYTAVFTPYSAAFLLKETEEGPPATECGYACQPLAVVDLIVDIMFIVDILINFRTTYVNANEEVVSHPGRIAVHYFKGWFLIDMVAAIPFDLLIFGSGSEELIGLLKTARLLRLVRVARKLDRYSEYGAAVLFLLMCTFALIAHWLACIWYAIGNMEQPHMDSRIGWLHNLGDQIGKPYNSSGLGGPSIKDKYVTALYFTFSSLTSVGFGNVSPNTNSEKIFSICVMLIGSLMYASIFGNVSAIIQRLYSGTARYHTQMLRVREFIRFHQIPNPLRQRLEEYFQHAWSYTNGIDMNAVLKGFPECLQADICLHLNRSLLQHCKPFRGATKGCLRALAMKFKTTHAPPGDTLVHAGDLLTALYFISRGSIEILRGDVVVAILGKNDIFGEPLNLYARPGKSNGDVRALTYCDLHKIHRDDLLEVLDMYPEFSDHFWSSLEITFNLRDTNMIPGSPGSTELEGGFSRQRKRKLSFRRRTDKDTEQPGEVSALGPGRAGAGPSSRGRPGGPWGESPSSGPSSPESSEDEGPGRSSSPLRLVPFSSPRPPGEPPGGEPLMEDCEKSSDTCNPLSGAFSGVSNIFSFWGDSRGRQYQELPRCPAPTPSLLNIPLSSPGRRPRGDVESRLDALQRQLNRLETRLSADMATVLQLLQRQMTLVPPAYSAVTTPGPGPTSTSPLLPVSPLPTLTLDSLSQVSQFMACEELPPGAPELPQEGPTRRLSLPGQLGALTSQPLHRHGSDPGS
# protocol: Non GLP hERG channel current study (manual patch)
# Assay type: cell-based
# conditionsUsed: human
measuredEndpoint: IC50 (nM)
The answer is to be given in nM; state only the numeric part.

State measured IC50 of the molecule CCC(=O)C(CC(C)N(C)C)(c1ccccc1)c1ccccc1 (racemic) [racemic methadone] with hERG (Homo sapiens, UniProt Q12809). 1000

###

# protocol: in vitro
# conditionsUsed: human, Caco-2, Percent Recovery, Rep. 1-3, B-A, 1 μg/mL
Counter-ions that a name gives are not always drawn.
measuredEndpoint: recovery (%)
The answer is to be given in %; state only the numeric part.

Please report recovery for the following molecule: CCC(=O)C(C[C@H](C)N(C)C)(c1ccccc1)c1ccccc1 [esmethadone HCl] 65

###

# protocol: in vitro
# conditionsUsed: human, Caco-2, pH 6.5, Permeability, Mean, B-A, Caco-2, pH 6.5/7.4, 10 μM
measuredEndpoint: Papp B→A (×10⁻⁶ cm/s)
The answer is to be given in ×10⁻⁶ cm/s; state only the numeric part.

Please report Papp B→A for the following compound: CC(CCc1ccccc1)NCC(O)c1ccc(O)c(C(N)=O)c1 (stereo not shown) [Labetalol] 49.3

###

# protocol: in vitro
# conditionsUsed: human, Caco-2, pH 6.5, Permeability, Rep. 1-3, A-B, Caco-2, pH 6.5/7.4, 10 μM
Provide the reported Papp A→B of each item.
The answer is to be given in ×10⁻⁶ cm/s; state only the numeric part.

Please report Papp A→B for the following molecule: CC(CCc1ccccc1)NCC(O)c1ccc(O)c(C(N)=O)c1 (centres unmarked) [Labetalol] 20.2

Please report Papp A→B for the following molecule: CC(C)NCC(O)COc1cccc2ccccc12 (centres unmarked) [Propranolol] 45.4
